test: NCI Yeast Anticancer Drug Screen. Data for the rad50 strain (AID 155);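 also: 0% = growth of vehicle-only cultures of the same strain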; settings: S. cerevisiae rad50 strain growth inhibition; at 5.0 µM (retest, dose inferred, filed as 0.5); active compounds read high
This is part of a sample that, as a whole, favours compounds with a hit. Of some 79,000 tested, about 15% had one in any assay.
Listed below: growth inhibition values for each entry.
METRIC: growth inhibition (%)

COc1ccc(C(C)c2cc3c(cc2OC/C(C)=N/NC(N)=O)OCO3)cc1 (stereo not given) | 61
OCCCCCCCCCl | 0
O=C(NCCNCCNCCNC(=O)c1cc(-c2ccccc2)nc2ccccc12)c1cc(-c2ccccc2)nc2ccccc12 | -16
N#CC1=C(N)OC(/C=C/c2ccccc2)=C(C#N)C1c1ccccc1 (stereo not given) | 33
COc1ccc(Cc2c3ccccc3cc[n+]2C)cc1Oc1ccc(Cc2c3ccccc3cc[n+]2C)cc1 | 2
[N-]=[N+]=Nc1ccc(SN2C(=O)c3ccccc3C2=O)cc1 | 29
C[Si](C)(C)C1=C([Si](C)(C)C)C(Cl)(Cl)C1=O | 10
COc1ccc(-c2c3ccccc3[n+](-c3ccccc3)c3ccccc23)cc1 | 98
C=C(CN(C)C)C(=O)c1ccc(Oc2ccccc2)cc1 | 99
OCCc1cccc2ccc3ccccc3c12 | 0
N#CC=Cc1ccc([N+](=O)[O-])s1 (mixture of isomers) | 41
CC(C)C[C@H](NC(=O)[C@H](Cc1ccccc1)NC(=O)c1cnccn1)B(O)O | 55
CCCCCOC(=O)C1C(=O)CC(c2ccccc2)C1c1ccccc1 (stereo not given) | 1
CC(=O)OCC1OC(Sc2ccc3ccccc3c2)C(OC(C)=O)C(OC(C)=O)C1OC(C)=O (stereo not given) | 2
CN(C)CCNc1ccc([N+](=O)[O-])c2nc3ccccc3c(N)c12 | -34
NNc1c(Cl)cc(Cl)cc1Cl | 44
S=c1sc2c(s1)SCCOCCOCCOCCS2 | -4
CCOP(=O)(OCC)C(=C1C=C(C(C)(C)C)C(=O)C(C(C)(C)C)=C1)P(=O)(OCC)OCC | 2
O=C(O)/C=C/C(=O)Nc1cccc2ccccc12 | 40
CCCCCCCCCCCN1C(=O)c2ccccc2S1(=O)=O | -3
CNc1cc(SC)nc(N)n1 | 3
Cc1nn(-c2ccc(Cl)cc2)c2nc(N)nc(N)c12 | 3
Clc1ccc2c(Cl)c3c(nc2c1)CCCC3 | -1
O=C(Cn1nnc2ccccc21)N1CCN(c2ccccc2)CC1 | -2
Cc1cc(C(O)(C(F)(F)F)C(F)(F)F)cc(C(O)(C(F)(F)F)C(F)(F)F)c1 | -1
Cc1cc(C)c(CCCC(=O)c2c(C)cc(C)cc2C)c(C)c1 | -7
CC(=O)Nc1n[n+]([O-])c2cc(C)ccc2[n+]1[O-] | 96
CC12CCC(=O)C=C1CCC1C2CCC2(C)C(c3cnc[nH]3)CCC12 (stereo not given) | 51
COc1ccc(C2CC(=O)CC(=O)C2)cc1 | -6
Oc1ccc(N(Cc2ccccc2)Cc2ccccc2)cc1 | 4
CCCCCC1OC1CC1OC1CCCCCCCC(=O)OC (stereo not given) | -2
Nc1ccc(Cl)c2ccccc12 | -1
CC1(c2ccc(Cl)cc2)OC(=O)c2c1ccc1ccccc21 (stereo not given) | 13
OC(C/C=N/Nc1ccccc1)(C(F)(F)Cl)C(F)(F)Cl | -13
CN(C)C1CCC2C3CCC4=CC(=O)CCC4(C)C3CCC21C (stereo not given) | 2

* * *

Assay: NCI Yeast Anticancer Drug Screen. Data for the cln2 rad14 strain (AID 165);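 also: 0% = growth equal to vehicle treated cultures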
Settings: S. cerevisiae cln2 rad14 strain, at 50.0 µM (retest, dose inferred, filed as 5.0), active compounds read high
Procedure: Growth inhibition of yeast strains with defined genetic alterations is measured as a screen for potential anti-cancer activity. Selected strains with alterations in DNA damage repair or cell cycle control were exposed to compounds and growth inhibition was measured relative to vehicle treated controls. The strain used in this assay is cln2 rad14
The panel holds about 79,000 compounds, 15% with a hit somewhere; the sample as a whole holds those more often.
METRIC: growth inhibition (%)

CN(C)C1CCC2C(=C1OC(=O)c1ccccc1)C=Cc1ccccc12 (stereo not given) | 7
O=c1[nH]c2c([N+](=O)[O-])cc(Cl)cc2nc1/C=C(\O)c1ccco1 | 62
O=C(/C=C(/c1ccccc1)P(=O)(c1ccccc1)c1ccccc1)c1ccccc1 | 71
CCOC(=O)/C(C#N)=C/c1ccccc1Br | 17
N=C(N)c1ccc(OCCCCOc2ccc(N)cc2Cl)cc1 | 38
ClCc1ccc2ccc3ccc(CCl)nc3c2n1 | 81
COc1cc2c(c(OC)c1OC)-c1ccc(O)c(=O)cc1C(N=Cc1ccccc1)CC2 (stereo not given) | 4
Cc1[nH]nc(C(=O)OC(C)C)c1N=NN(C)C | 97
CN(C)c1ncnc2c1ncn2C | 38
COC(=O)c1c2oc3c(C(=O)OC)cccc3nc-2cc(N)c1=O | -2

* * *

assay: NCI Yeast Anticancer Drug Screen. Data for the mec2-1 strain (AID 157); conditions: S. cerevisiae mec2-1 strain, at 50.0 µM
The panel holds about 79,000 compounds, 15% with a hit somewhere; the sample as a whole holds those more often. Active and inactive are the calls of the source. Rule as the data show it: active = growth inhibition above about 70%; inactive = the rest.
Outcomes: TRUE (active), FALSE (inactive)

CCOC(=O)C1=C(C)NC2=C(C(=O)N(c3ccccc3)C2c2ccccc2)C1c1ccccc1 (stereo not given) | FALSE
S=C(S)NCCN1CCNCC1 | FALSE
O=S1(=O)CC2C1C1(Cl)OC2(Cl)c2ccccc21 (stereo not given) | FALSE
CCCCCCCCCCNCCSSCCNC(C)=O | TRUE
O=C1c2ccccc2C(=O)c2cc(O)ccc21 | FALSE

* * *

assay: NCI Yeast Anticancer Drug Screen. Data for the sgs1 mgt1 strain (AID 161);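 also: 0% = growth of cultures given vehicle only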; conditions: S. cerevisiae sgs1 mgt1 strain, at 50.0 µM (retest, dose inferred, filed as 5.0), active compounds read high
About 79,000 compounds went through this panel and 15% of them were active in at least one assay; those are over-represented in the sample as a whole.
Parameter threshold = 80%. Response is 1 when growth inhibition meets or exceeds it, else -1.

COc1ccc(CC2=CC(=O)C(=O)C=C2C)cc1 | -1
Nc1ccccc1N=Cc1ccccc1O | 1
COc1cc(C2OC(=O)c3ccccc3S2)ccc1O (stereo unspecified) | -1
CCCCCCCCCCCC(=O)NN | -1
CC1(C)CC(=O)C(C=NC(=S)c2ccccc2)=C(O)C1 | -1
COc1cc(C(c2cc3c(cc2OC(C)=O)OCO3)C(C(C)=O)C(C)=O)cc(OC)c1OC(C)=O (stereo unspecified) | -1
COc1cc2c(cc1O)C1C(O)C(O)C=C3CCN(C2)C31 (stereo unspecified) | 1
N=C(N)c1cccc(-c2ccc(-c3ccccc3)o2)c1 | 1
CCCCCN=C(C)C(C)=NCCCCC | -1
O=[N+]([O-])c1ccc(S(=O)/N=C/c2ccccc2)c([N+](=O)[O-])c1 (stereo unspecified) | 1
O=C(CSc1nnc(-c2ccc(N=Cc3ccc(Cl)cc3)cc2)o1)Nc1ccccc1Cl | -1
CSc1nc(COC(=O)NC(C)C)c(COC(=O)NC(C)C)n1-c1ccccc1 | -1
CCCCOc1ccc(CN2CCOC2=O)cc1 | -1
CCCCCCCCCCn1cc[nH]c1=S | 1
COC(=O)CCCCC(=O)N(C(C)C)C(C)C | -1
c1ccc(-c2n[nH]c3c4ccccc4c4ccccc4c23)cc1 | 1
COc1ccc2nc3cc(Cl)ccc3c(NCCCCN(C)C)c2c1 | -1
Fc1ccc(NC(=S)SCc2ccc(Cl)c(Cl)c2)cc1 | 1
Nc1nc(-c2cc3cc(Cl)ccc3o2)cs1 | -1
COC(=O)CCC(C)C1CCC2C3CCC4CC(SC(=N)N)CCC4(C)C3CC(O)C12C (stereo unspecified) | 1
COC(=O)C1C(C(=O)OC)C2(OC(c3ccc(Cl)cc3)=CC2=O)C12OC(c1ccc(Cl)cc1)=CC2=O (stereo unspecified) | 1
CCCCCCCCCCCCSC1=C(N)C(=O)c2ccccc2C1=O | -1
NC(=S)c1cccc(OCCCOc2ccccc2)c1 | -1
ClCc1c(-c2ccccc2)oc(-c2ccccc2)c1CCl | -1
O=C(CC(=O)c1ccc(O)cc1)c1ccccc1 | -1
CSC(=S)n1nc(-c2cccs2)c(N=Nc2ccccc2)c1C(F)(F)F | 1
Cc1cc(C2C(O)C(c3cc(C)on3)C2(C)O)no1 (stereo unspecified) | -1
C=C(Cl)C(=NC(C)(C)C)Nc1ccccc1Cl | -1
CCCCCCCCCCCCCCCCNCCCCCCCC(=O)O | 1

* * *

The entries below come with measured growth inhibition values attached.
assay: NCI Yeast Anticancer Drug Screen. Data for the rad50 strain (AID 155);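 also: 0% = growth of vehicle-only cultures of the same strain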; conditions: S. cerevisiae rad50 strain growth inhibition; at 50.0 µM; active compounds read high
The panel holds about 79,000 compounds, 15% with a hit somewhere; the sample as a whole holds those more often.
METRIC: growth inhibition (%)

COc1ccc(C)cc1NC(=O)ON=C1CCCCC1 | 88.2
O=C(c1ccccc1)c1ccc(O)cc1O | 85
Nc1cc(Cl)ccc1C(=O)O | 81.2
CCCCN=C(c1ccc(O)cc1)c1ccc(OC)cc1O | 42.7
Cc1cc2nc(CC(=O)c3ccc4ccccc4c3)c(=O)[nH]c2cc1C | 94.7
Cc1ccccc1N=Nc1ccccc1 | 99.4
C[C@@]12C[C@@H](Br)[C@H](Br)C[C@]1(C)O2 | 94.5
CCc1c(C)[nH]c2c([N+](=O)[O-])cccc12 | 95.2
O=C(N=Nc1cccc(Cl)c1)NNc1cccc(Cl)c1 | 85.8
COc1ccc(Cc2c3ccccc3cc[n+]2C)cc1Oc1ccc(Cc2c3ccccc3cc[n+]2C)cc1 | 51.5
O=C1Nc2ccccc2C(=O)C1(Cc1ccccc1)C(=O)c1ccccc1 (centres undefined) | 97
CC(=O)OCC1OC(Sc2ccc3ccccc3c2)C(OC(C)=O)C(OC(C)=O)C1OC(C)=O (centres undefined) | 23.9
Cc1ccc(NCCNCCO)c2c(=O)c3ccccc3sc12 | 99.5
CCOC(=O)c1nnc2cc(-c3ccccc3)nn2c1-c1ccccc1 | 51.1
O=C(CC1(O)C(=O)Nc2c(Cl)cc(Cl)cc21)c1ccc(Br)cc1Br (centres undefined) | 92.3
COc1ccc(/C(C#N)=C/c2ccncc2)cc1 | 73.2
COc1ccc2cc(C(=O)CCCC(C)C(=O)O)ccc2c1 (centres undefined) | 74.6
COc1ccc(C(c2ccc(OC)c(OC)c2)C(Cl)(Cl)Cl)cc1OC | 89.5
CCOC(=O)Cc1csc(/C=C/c2ccc(OC)c(OC)c2)n1 | 17.2
CS(=O)(=O)OCCN(CCOS(C)(=O)=O)c1ccc(C=Nc2cc(Cl)c(O)c(Cl)c2)c(Cl)c1 | 46.6
CCCCCCCCCCC(C(=O)OCCCC)P(=O)(OCCCC)OCCCC (centres undefined) | 36.4
Nc1ccc2nc(Nc3ccc(F)cc3)cnc2c1 | 63.5
COC(=O)C12OCC34C(CC5C(C)C6=CC(=O)OC6=CC5(C)C3C(O)C1O)OC(=O)C(O)C24 (centres undefined) | 89.7
CC(=O)OC1C(OC(C)=O)C2C(C)CC3OC(=O)C(C)C3CC2(C)C1OC(C)=O (centres undefined) | 78.2
